system.tested: T1, huNav1.7α + β1-β2-β3 (human, UniProt Q15858 1-1988; A5A6L6 19-218; O60939 30-215; Q2KI11 23-215)
T1 construct: Cell line (CHO FlpIn, HEK FlpIn, transient HEK293T) is named under assay; also called huNav1.7-beta1-beta2-beta3; human Nav1.7α with Navβ1, Navβ2 and Navβ3
assay.method.text: binding FACS, CHO FlpIn cells
metric: EC50 (nM)

binder | EC50, nM
F010302357 (VHH) VHH: EVQLVESGGGVVQPGGSLRLSCAASSRQFIRDVFTGWYRQAPGKQRELVARIYNEGNTNYADSVKGRFTISRDNAKKTVYLQMNSLRPEDTALYYCLFSGTISTGREYRSGDYWGQGTLVTVSS | 5.3
F010302339 (VHH) VHH: EVQLVESGGGVVQPGGSLRLSCAASHRAFIRDVFTGWYRRAPGKQRELVARIYEGGNTQYADSAKGRFTISRDNAKKTVYLQMNSLRPEDTALYYCLFSGTISTGREYRSGDYWGQGTLVTVSS | 4.3
F010301629 (VHH, G50S vs F0103362B08 (Kabat)) VHH: EVQLVESGGGLVQAGGSLRLSCAASVRPFSTSAMGWFRQAPEKEREAVASILWNGIVTYYADSVKGRFTISRDNAKNEVYLQMNKLKPEDTAVYYCALDRDYGGRSFSAYEYEYWGQGTLVTVSS | 120
F010301892 (VHH, V33L vs F0103464B09 (Kabat); also called F0103464B09(V33L)) VHH: EVQLVESGGGLVQPGGSLRLSCATTSRAFIRDLFTGWYRRVPGKERELVARIYNGGNTNYADFAKGRFSISRDNAKKMVTLRMSNLKPEDTGVYYCLFSGTINTGREYRSGDYWGQGTLVTVSS | 4
F010302363 (VHH) VHH: EVQLVESGGGVVQPGGSLRLSCAASHRAFIRDVFTGWYRQAPGKQRELVARIYEGGNTQYADSVKGRFTISRDNAKKTVYLQMNSLRPEDTALYYCLFSGTISTGREYRSGDYWGQGTLVTVSS | 4.2
F010301579 (VHH, R27K vs F0103362B08 (Kabat)) VHH: EVQLVESGGGLVQAGGSLRLSCAASVKPFSTSAMGWFRQAPEKEREAVAGILWNGIVTYYADSVKGRFTISRDNAKNEVYLQMNKLKPEDTAVYYCALDRDYGGRSFSAYEYEYWGQGTLVTVSS | 130
F010302353 (VHH) VHH: EVQLVESGGGVVQPGGSLRLSCAASHRQFIRDVFTGWYRRAPGKQRELVARIYEGGNTQYADSVKGRFTISRDNAKKTVYLQMNSLRPEDTALYYCLFSGTISTGREYRSGDYWGQGTLVTVSS | 4.2
F010301574 (VHH, G35A vs F0103362B08 (Kabat)) VHH: EVQLVESGGGLVQAGGSLRLSCAASVRPFSTSAMAWFRQAPEKEREAVAGILWNGIVTYYADSVKGRFTISRDNAKNEVYLQMNKLKPEDTAVYYCALDRDYGGRSFSAYEYEYWGQGTLVTVSS | 100
F010301589 (VHH, I55P vs F0103362B08 (Kabat)) VHH: EVQLVESGGGLVQAGGSLRLSCAASVRPFSTSAMGWFRQAPEKEREAVAGILWNGPVTYYADSVKGRFTISRDNAKNEVYLQMNKLKPEDTAVYYCALDRDYGGRSFSAYEYEYWGQGTLVTVSS | 120
F010301885 (VHH, N53E vs F0103464B09 (Kabat)) VHH: EVQLVESGGGLVQPGGSLRLSCATTSRAFIRDVFTGWYRRVPGKERELVARIYEGGNTNYADFAKGRFSISRDNAKKMVTLRMSNLKPEDTGVYYCLFSGTINTGREYRSGDYWGQGTLVTVSS | 8

(P) F010301594 (VHH, R100aK vs F0103362B08 (Kabat)) VHH: EVQLVESGGGLVQAGGSLRLSCAASVRPFSTSAMGWFRQAPEKEREAVAGILWNGIVTYYADSVKGRFTISRDNAKNEVYLQMNKLKPEDTAVYYCALDRDYGGKSFSAYEYEYWGQGTLVTVSS
(Q) F010302348 (VHH) VHH: EVQLVESGGGVVQPGGSLRLSCAASHRAFIRDLFTGWYRQAPGKQRELVARIYESGNTNYADSAKGRFTISRDNAKKTVYLQMNSLRPEDTALYYCLFSGTISTGREYRSGDYWGQGTLVTVSS
Lookup: Lower value for measured EC50? Options: P , Q Pick one; state its label.
Found: Q
(Q: 6.7 nM, P: 110 nM)
